Biological target: Carnitine O-palmitoyltransferase 1, muscle isoform (Homo sapiens)
Sequence (Q92523 whole entry): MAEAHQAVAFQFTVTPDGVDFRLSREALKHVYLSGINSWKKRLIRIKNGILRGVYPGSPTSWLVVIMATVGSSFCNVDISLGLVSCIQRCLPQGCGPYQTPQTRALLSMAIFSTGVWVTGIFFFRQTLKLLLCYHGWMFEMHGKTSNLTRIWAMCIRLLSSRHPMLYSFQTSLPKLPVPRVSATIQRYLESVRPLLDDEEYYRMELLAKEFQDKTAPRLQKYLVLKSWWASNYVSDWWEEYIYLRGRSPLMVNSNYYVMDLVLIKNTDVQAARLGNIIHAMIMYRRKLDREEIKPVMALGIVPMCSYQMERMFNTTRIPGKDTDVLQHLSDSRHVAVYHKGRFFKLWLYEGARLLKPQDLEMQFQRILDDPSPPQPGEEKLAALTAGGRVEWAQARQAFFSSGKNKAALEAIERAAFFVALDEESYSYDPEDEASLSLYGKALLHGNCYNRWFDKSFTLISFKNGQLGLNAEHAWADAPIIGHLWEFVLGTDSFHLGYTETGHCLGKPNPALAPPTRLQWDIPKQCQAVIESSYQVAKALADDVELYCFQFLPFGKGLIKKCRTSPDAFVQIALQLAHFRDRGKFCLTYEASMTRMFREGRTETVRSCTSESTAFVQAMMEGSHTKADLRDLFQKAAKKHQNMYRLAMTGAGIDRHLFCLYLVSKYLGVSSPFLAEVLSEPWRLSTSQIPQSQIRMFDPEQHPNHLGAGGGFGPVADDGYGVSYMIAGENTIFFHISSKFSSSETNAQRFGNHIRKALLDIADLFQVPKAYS
Assay: SUPPLEMENTARY: Inhibition of Carnitine palmitoyltransferase 1, muscle isoform
pIC50: −log10 of the molar value.
property: pIC50

Sample answers from the record:
COc1ccc(Cl)cc1S(=O)(=O)N1CCc2c(C)cc(C(=O)Nc3ccc(CC(=O)O)cc3)cc21 | 6.35
COc1ccc(Cl)cc1S(=O)(=O)N1COc2c(F)cc(C(=O)Nc3ccc(C(=O)O)c(F)c3)cc21 | 5.31
O=C(O)c1ccc(NC(=O)c2cccc(S(=O)(=O)N3CCCc4ccc(C(F)(F)F)cc43)c2)cc1 | 5.31
Cc1cc(C)cc(S(=O)(=O)N2CCc3ccc(C(=O)Nc4ccc(CC(=O)O)cc4)cc32)c1 | 5.17

1 = COc1ccc(Cl)cc1CN1C(=O)OC(C)(C)c2ccc(C(=O)Nc3ccc(C(=O)O)cc3)cc21
2 = COc1ccc(Cl)cc1S(=O)(=O)N1CCOc2c(C)cc(C(=O)Nc3nc(CC(=O)O)cs3)cc21
3 = COc1ccc(Cl)cc1S(=O)(=O)N1CCc2ccc(C#Cc3ccc(C(=O)O)cc3)cc21
Incoming: Ordering: ascending pIC50. Reply with the labels, ordered as the question asks.
Outgoing: 3, 1, 2

----------
Molecular target: Carnitine O-palmitoyltransferase 1, liver isoform (Rattus norvegicus, UniProt P32198)
Sequence (P32198 whole entry): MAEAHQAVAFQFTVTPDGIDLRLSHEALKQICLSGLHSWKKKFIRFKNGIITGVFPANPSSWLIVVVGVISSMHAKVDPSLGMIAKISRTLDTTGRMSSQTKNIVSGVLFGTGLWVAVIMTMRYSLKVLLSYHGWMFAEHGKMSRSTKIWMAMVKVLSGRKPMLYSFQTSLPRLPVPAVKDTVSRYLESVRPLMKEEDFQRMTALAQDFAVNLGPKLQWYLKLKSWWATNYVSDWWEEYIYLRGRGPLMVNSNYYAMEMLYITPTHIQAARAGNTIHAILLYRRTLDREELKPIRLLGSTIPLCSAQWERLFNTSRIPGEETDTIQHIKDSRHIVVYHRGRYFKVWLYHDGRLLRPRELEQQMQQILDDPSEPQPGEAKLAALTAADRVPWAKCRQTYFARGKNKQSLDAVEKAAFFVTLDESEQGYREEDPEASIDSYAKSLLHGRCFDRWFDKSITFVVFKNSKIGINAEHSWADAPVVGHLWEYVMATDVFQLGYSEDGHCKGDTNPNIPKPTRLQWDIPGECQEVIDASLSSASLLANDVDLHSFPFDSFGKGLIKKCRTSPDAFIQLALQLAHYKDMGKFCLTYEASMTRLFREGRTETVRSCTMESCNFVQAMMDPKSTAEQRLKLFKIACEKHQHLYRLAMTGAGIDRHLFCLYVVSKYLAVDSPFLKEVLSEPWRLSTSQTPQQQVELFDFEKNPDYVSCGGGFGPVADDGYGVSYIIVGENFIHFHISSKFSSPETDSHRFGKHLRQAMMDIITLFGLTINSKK
Experiment: SUPPLEMENTARY: Inhibition of Carnitine palmitoyltransferase 1, liver isoform
property: IC50 (nM)

O=C(COc1ccccc1)N1CCCC[C@@H]1c1nc(-c2ccc(Cl)cc2)no1 | 228

I = COc1ccc(Cl)cc1S(=O)(=O)N1CCc2ccc(C(=O)Nc3ccc(CC(=O)O)cc3)cc21
II = O=C(COc1ccccc1)N1CCCC[C@@H]1c1nc(-c2ccc3[nH]c(=O)[nH]c3c2)no1
Incoming: When their IC50 values are compared, which is larger, I or II ? State the label of the item chosen.
Outgoing: II
